# key: entry, value: O.D. 490/630 at 0.015625 µg/mL
target: T1, full-length recombinant human PAD4 (human, UniProt Q9UM07 1-663); assay: ELISA, immobilized human PAD4
T1 construct: Full-length recombinant; also called peptidylarginine deiminase 4
T1 sequence (Q9UM07 whole entry): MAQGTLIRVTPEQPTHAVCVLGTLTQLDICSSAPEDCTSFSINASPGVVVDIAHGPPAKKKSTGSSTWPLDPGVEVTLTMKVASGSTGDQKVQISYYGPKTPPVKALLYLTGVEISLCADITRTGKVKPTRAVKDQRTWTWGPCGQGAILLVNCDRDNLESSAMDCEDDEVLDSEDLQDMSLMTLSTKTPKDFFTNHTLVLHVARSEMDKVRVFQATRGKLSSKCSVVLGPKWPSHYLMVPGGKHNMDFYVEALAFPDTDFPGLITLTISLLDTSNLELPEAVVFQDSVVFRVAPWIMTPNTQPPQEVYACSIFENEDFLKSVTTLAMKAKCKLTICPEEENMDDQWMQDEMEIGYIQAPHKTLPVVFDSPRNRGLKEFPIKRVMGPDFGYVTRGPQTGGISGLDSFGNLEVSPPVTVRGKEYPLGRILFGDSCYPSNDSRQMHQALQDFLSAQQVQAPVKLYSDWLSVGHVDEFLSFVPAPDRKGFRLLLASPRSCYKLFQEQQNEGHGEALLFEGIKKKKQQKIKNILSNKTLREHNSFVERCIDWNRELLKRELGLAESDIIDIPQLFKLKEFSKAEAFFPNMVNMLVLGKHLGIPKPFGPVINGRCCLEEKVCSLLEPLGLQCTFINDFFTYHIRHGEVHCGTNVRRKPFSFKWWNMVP
Reply briefly: the number, and no unit.

Example entries and their recorded answers appear below.
humanized anti-PAD4 antibody derived from G8, VH H4.32 / VL L4.00 (antibody, IgG1, V domains shown, IgG1 kappa; also called G8 H4.32/L4.00) VH: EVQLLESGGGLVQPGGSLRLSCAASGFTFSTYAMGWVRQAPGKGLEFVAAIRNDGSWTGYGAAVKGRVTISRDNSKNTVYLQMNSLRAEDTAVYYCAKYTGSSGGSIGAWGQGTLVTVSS VL: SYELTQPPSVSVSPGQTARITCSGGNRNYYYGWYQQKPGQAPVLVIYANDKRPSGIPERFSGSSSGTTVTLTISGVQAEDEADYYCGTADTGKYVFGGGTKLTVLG    0.649
humanized anti-PAD4 antibody derived from H7, VH H4.32 / VL L4.17 (antibody, IgG1, V domains shown, IgG1 kappa; also called H7 H4.32/L4.17) VH: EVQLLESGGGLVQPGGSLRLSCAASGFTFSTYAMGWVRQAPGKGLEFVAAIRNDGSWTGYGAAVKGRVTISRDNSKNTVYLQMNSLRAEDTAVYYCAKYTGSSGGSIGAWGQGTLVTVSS VL: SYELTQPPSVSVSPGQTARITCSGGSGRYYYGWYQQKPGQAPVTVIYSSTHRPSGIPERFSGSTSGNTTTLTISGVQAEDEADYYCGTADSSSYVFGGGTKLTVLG    1.77

The binder identified as humanized anti-PAD4 antibody derived from H7, VH H4.15 / VL L4.00 (antibody, IgG1, V domains shown, IgG1 kappa; also called H7 H4.15/L4.00) VH: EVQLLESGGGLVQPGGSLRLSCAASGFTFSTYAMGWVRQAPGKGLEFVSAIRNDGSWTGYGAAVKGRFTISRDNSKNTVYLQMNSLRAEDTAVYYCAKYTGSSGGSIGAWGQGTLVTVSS VL: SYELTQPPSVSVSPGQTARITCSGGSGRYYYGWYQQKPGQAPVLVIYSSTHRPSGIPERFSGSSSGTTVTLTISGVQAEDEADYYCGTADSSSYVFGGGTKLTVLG registered its O.D. 490/630 at 0.015625 µg/mL at 0.764

Where do these numbers come from? They come from patent US20180044434A1.
